# pIC50 values compiled below
Molecular target: myeloperoxidase (MPO) (Homo sapiens)
Sequence (P05164 49-745): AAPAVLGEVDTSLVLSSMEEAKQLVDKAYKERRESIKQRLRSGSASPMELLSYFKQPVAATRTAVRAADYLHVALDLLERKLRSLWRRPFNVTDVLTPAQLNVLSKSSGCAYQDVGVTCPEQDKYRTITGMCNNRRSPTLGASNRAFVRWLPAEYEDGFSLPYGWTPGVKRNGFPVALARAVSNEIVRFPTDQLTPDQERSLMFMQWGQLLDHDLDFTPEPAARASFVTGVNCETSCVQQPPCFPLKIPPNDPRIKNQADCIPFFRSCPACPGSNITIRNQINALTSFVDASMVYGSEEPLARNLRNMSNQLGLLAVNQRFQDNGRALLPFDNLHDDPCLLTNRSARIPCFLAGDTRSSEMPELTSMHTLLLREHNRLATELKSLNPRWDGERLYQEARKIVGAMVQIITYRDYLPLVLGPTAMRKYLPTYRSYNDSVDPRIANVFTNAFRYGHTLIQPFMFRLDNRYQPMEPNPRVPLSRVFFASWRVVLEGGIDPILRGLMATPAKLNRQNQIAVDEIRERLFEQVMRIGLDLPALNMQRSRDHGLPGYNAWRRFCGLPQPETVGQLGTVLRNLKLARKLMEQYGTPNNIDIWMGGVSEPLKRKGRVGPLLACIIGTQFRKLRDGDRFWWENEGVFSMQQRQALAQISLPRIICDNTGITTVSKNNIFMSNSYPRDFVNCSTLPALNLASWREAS
Assay: MPO peroxidation assay (Amplex Red assay)
Format: biochemical
Settings: MPO peroxidation, potency range class; read-out: Amplex Red IC50
pIC50: −log10 of the molar value. Structures can show the parent of a compound that is named as a salt.
result_type: pIC50

* NC(=O)c1ccc(-c2cc(F)c(COc3cc(N)nc4[nH]nnc34)c(F)c2)cn1 [Example 341] | 7.00 to 9.00
* Nc1cc(OCc2c(F)cccc2F)c2nn[nH]c2n1 [Example 54] | 7.00 to 9.00
* Nc1cc(OCc2cccc(-c3ccc(F)cc3)c2)c2nn[nH]c2n1 [Example 95] | 7.00 to 9.00
* COC(=O)c1cn(-c2ccc(COc3cc(N)nc4[nH]nnc34)c(OC(F)(F)F)c2)cn1 [Example 264] | 6.00 to 7.00
* Cc1cn(-c2ccc(COc3cc(N)nc4[nH]nnc34)c(C#N)c2)cn1 [Example 276] | 6.00 to 7.00
* CCS(=O)(=O)c1ccc(Cl)cc1COc1cc(N)nc2[nH]nnc12 [Example 227, TFA] | 6.00 to 7.00
* Nc1cc(OCc2ccc(C(=O)N3CCC[C@H]3CO)cc2Cl)c2nn[nH]c2n1 [Example 199] | 6.00 to 7.00
* Nc1cc(OCc2ccccc2-n2cncn2)c2nn[nH]c2n1 [Example 253] | 6.00 to 7.00
* CNS(=O)(=O)c1ccccc1COc1cc(N)nc2[nH]nnc12 [Example 229, TFA] | 6.00 to 7.00
* Nc1cc(OCc2cc(Cl)ccc2OC(F)(F)F)c2nn[nH]c2n1 [Example 36] | 7.00 to 9.00
* N#Cc1cc(Br)ccc1COc1cc(N)nc2[nH]nnc12 [Example 245] | 7.00 to 9.00
* Nc1cncc(-c2ccc(F)c(COc3cc(N)nc4[nH]nnc34)c2Cl)c1 [Example 343] | 7.00 to 9.00
* Nc1cc(OCc2cc(C(=O)N3CCC(O)CC3)ccc2F)c2nn[nH]c2n1 [Example 153] | 6.00 to 7.00
* CN(C)C(=O)c1ccc(Cl)c(COc2cc(N)nc3[nH]nnc23)c1 [Example 185] | 6.00 to 7.00
* Nc1cc(OCc2cc(OC(F)(F)F)ccc2F)c2nn[nH]c2n1 [Example 27] | 7.00 to 9.00
* N#Cc1ccc(-c2ccc(COc3cc(N)nc4[nH]nnc34)c(OC(F)(F)F)c2)cn1 [Example 292] | 7.00 to 9.00
* CCN(C)C(=O)c1ccc(-c2ccc(COc3cc(N)nc4[nH]nnc34)cc2)cc1F [Example 107] | 6.00 to 7.00
* CC(=O)N1CCN(c2ccc(-c3ccc(COc4cc(N)nc5[nH]nnc45)c(C#N)c3)cn2)CC1 [Example 318] | 7.00 to 9.00

* * *

Target: myeloperoxidase (MPO) (Homo sapiens)
Test: MPO peroxidation assay (Amplex Red assay)
Type: biochemical
Settings: MPO peroxidation, potency range class; read-out: Amplex Red IC50
# IC50 values compiled below
result_type: IC50

* CC(C)n1cc(-c2ccc(COc3cc(N)nc4[nH]nnc34)c(OC(F)(F)F)c2)cn1 | 0.001 to 0.1 µM
* Nc1cc(OCc2cccc(-n3cnc(C(F)F)n3)c2)c2nn[nH]c2n1 | 0.001 to 0.1 µM
* CN(C)CCN(C)C(=O)c1ccc(COc2cc(N)nc3[nH]nnc23)c(Cl)c1 | 0.101 to 0.999 µM
* COc1ccc(-c2cccc(COc3cc(N)nc4[nH]nnc34)c2)cc1F | 0.001 to 0.1 µM
* CC(C)Cn1cc(-c2ccc(F)c(COc3cc(N)nc4[nH]nnc34)c2)cn1 | 0.001 to 0.1 µM
* Nc1cc(OCc2ccc(-c3cncc(F)c3)cc2OC(F)(F)F)c2nn[nH]c2n1 | 0.001 to 0.1 µM
* NC(=O)CNC(=O)c1ccc(F)c(COc2cc(N)nc3[nH]nnc23)c1 | 0.001 to 0.1 µM
* Nc1cc(OCc2cccc(Oc3ccccc3)c2)c2nn[nH]c2n1 | 0.101 to 0.999 µM
* Cc1cc(CNC(=O)c2ccc(COc3cc(N)nc4[nH]nnc34)c(Cl)c2)n(C)n1 | 0.001 to 0.1 µM
* Nc1cc(OCc2cc(C(=O)NCc3ccccc3)ccc2Cl)c2nn[nH]c2n1 | 0.001 to 0.1 µM
* Nc1cc(OCc2ccc(-c3cccc(S(N)(=O)=O)c3)cc2OC(F)(F)F)c2nn[nH]c2n1 | 0.001 to 0.1 µM
* Nc1cc(OCc2cc(Cl)ccc2OCC2CCCO2)c2nn[nH]c2n1 (stereo not drawn) | 0.001 to 0.1 µM
* CCC(F)(F)C(Oc1cc(N)nc2[nH]nnc12)c1ccccc1OC (racemic) | 0.101 to 0.999 µM
* Nc1cc(OCc2ccc(C(=O)NCCc3c[nH]cn3)cc2Cl)c2nn[nH]c2n1 | 0.001 to 0.1 µM
* Nc1cc(OCc2cc(OC(F)F)ccc2F)c2nn[nH]c2n1 | 0.001 to 0.1 µM
* Nc1cc(OCc2ccc(-c3ccc(O)nc3)cc2OC(F)(F)F)c2nn[nH]c2n1 | 0.001 to 0.1 µM
* COc1ccc(OC(F)(F)F)cc1COc1cc(N)nc2[nH]nnc12 | 0.001 to 0.1 µM
* Nc1cc(OCc2ccc(-n3ccnc3)cc2OC(F)(F)F)c2nn[nH]c2n1 | 0.001 to 0.1 µM
